test system: E. coli TESEC Mtb Asd; assay: growth (OD600 after 10 h); higher = more growth (less inhibition); conditions: arabinose induction (level): High; compound 0.1 mM; raw OD600 reference: median of DMSO wells 0.331, cell-free background 0.041
Where a name gives a salt, the structure may show the parent alone.
READOUT: growth
Give bare numbers.

Your task in this section: give growth for each listed record.
1. O=c1c2ccccc2[se]n1-c1ccccc1
2. CC[C@@]1(O)C(=O)OCc2c1cc1n(c2=O)Cc2cc3ccccc3nc2-1 [Camptothecine (S,+)]
3. C[C@]12CCC(=O)C=C1CC[C@@H]1[C@@H]2C(=O)C[C@]2(C)C(=O)CC[C@@H]12
4. CCCC(C)C1(CC)C(=O)NC(=O)NC1=O (configuration not stated)

a:
1: 0.0698; 2: 0.292; 3: 0.256; 4: 0.451

Your task in this section: give growth for each listed record.
1. CC(C)N(CCC(C(N)=O)(c1ccccc1)c1ccccn1)C(C)C (configuration not stated) [Disopyramide]
2. CNC(=O)Oc1ccc2c(c1)[C@]1(C)CCN(C)[C@@H]1N2C [Eserine hemisulfate salt]
3. C[C@@H]1O[C@@H](O[C@@H]2C=C3CC[C@@H]4[C@H](CC[C@]5(C)[C@@H](c6ccc(=O)oc6)CC[C@]45O)[C@@]3(C)CC2)[C@H](O)[C@H](O)[C@H]1O
4. CN(C)C(=O)Oc1cc(OC(=O)N(C)C)cc(C(O)CNC(C)(C)C)c1 (configuration not stated) [Bambuterol hydrochloride]
5. CC(Cc1ccc(O)cc1)NCC(O)c1cc(O)cc(O)c1 (configuration not stated) [Fenoterol hydrobromide]
6. CN1CCN(C(=O)OC2c3nccnc3C(=O)N2c2ccc(Cl)cn2)CC1 (configuration not stated)

a:
[0.313, 0.328, 0.117, 0.328, 0.298, 0.291]

Your task in this section: give growth for each listed record.
1. CC(C)(N)Cc1ccccc1 [Phentermine hydrochloride]
2. O=c1[nH]c2ccccc2n1C1CCN(CCCC(c2ccc(F)cc2)c2ccc(F)cc2)CC1 [Pimozide]
3. O=C(NCNC(=O)NC1C(=O)NC(=O)N1CO)NC1C(=O)NC(=O)N1CO (configuration not stated)
4. CC(C)(C)NCC(O)c1cc(Cl)c(N)c(Cl)c1 (configuration not stated) [Clenbuterol hydrochloride]
5. CC(C)c1c(CN(C)C(C)Cc2ccccc2)n(C)n(-c2ccccc2)c1=O (configuration not stated)
6. C[N+](C)(C)CCCCCCCCCC[N+](C)(C)C [Decamethonium bromide]
7. COc1cc([C@@H]2c3cc4c(cc3[C@H](O)[C@H]3COC(=O)[C@H]23)OCO4)cc(OC)c1OC

a:
0.318
0.209
0.336
0.35
0.425
0.369
0.443

Hello, the source for this data is the supplement of paper PMC9262897, in case you need it.
